Test system: A129
experiment_description: SRB cytotoxicity assay, 48 hours, parental cell line A129
Assay type: cell-based
run_conditions: A129, 48 hours
observation_type: IC50
Answer shape: numeric part, then the unit.

Incoming: For the molecule N.N.[Cl][Pt][Cl] [Cisplatin] , give its reported IC50.
Outgoing: 0.23 µM
